# Tested on: release of IL-1β
# procedure_text: Inhibition of LPS-induced IL-1β release from isolated human mononuclear cells (enzyme immunoassay)
# Format: cell-based
# study_conditions: human mononuclear cells from citrate blood, lipopolysaccharide (Salmonella abortus equi) induced, 37° C. for 20 hours, IL-1β in supernatant; seven concentrations
# reported IC50; entries follow
// units = µM; emit number, no label

Example cases with answers are listed next.
Entry C[C@H](NS(=O)(=O)c1nc(-c2ccccc2)ns1)C(=O)O : reported IC50 = ?
10

Next: O=C1CCN(S(=O)(=O)c2nc(-c3ccccc3)ns2)CC1
2

Try the compound O=S(=O)(Nc1ccc(Cl)cc1)c1nc(-c2ccccc2)ns1
34

// same read-out, input: CCOC(=O)C1CCN(S(=O)(=O)c2nc(-c3ccccc3)ns2)CC1
2

Here is the next compound: CN(c1ccccc1)S(=O)(=O)c1nc(-c2ccccc2)ns1
11

Consider next the compound COC(=O)[C@H](C)NS(=O)(=O)c1nc(-c2ccccc2)ns1 in the same way.
2

Consider next the compound CC(=O)N1CCN(S(=O)(=O)c2nc(-c3ccccc3)ns2)CC1 in the same way.
2

Record: O=C(O)[C@H](Cc1ccccc1)NS(=O)(=O)c1nc(-c2ccccc2)ns1
20

New cases:
Item C[C@H](NS(=O)(=O)c1nc(-c2ccccc2)ns1)C(=O)OCc1ccccc1 has what recorded IC50?
10

====

Form field: IC50 (one value per entry).
# Tested on: release of IL-1β
# procedure_text: Inhibition of LPS-induced IL-1β release from isolated human mononuclear cells (enzyme immunoassay)
# Format: cell-based
# study_conditions: human mononuclear cells from citrate blood, lipopolysaccharide (Salmonella abortus equi) induced, 37° C. for 20 hours, IL-1β in supernatant; seven concentrations

Worked examples follow.
Need IC50 of CN1CCN(S(=O)(=O)c2nc(-c3ccc(Cl)cc3)ns2)CC1 [Example 25] , thanks.
2 µM

Another molecule: O=S(=O)(NC1CCCCC1)c1nc(-c2ccccc2)ns1 [Example 5]
6 µM

What would you report for CC(C)OC(=O)[C@H](C)NS(=O)(=O)c1nc(-c2ccccc2)ns1 [Example 23] ?
6 µM

Note, next up: O=S(=O)(c1nc(-c2ccccc2)ns1)N1CCN(c2ccc(Cl)cc2)CC1 [Example 10]
10 µM

Moving on to the next molecule: O=C(O)C1CCN(S(=O)(=O)c2nc(-c3ccccc3)ns2)CC1 [Example 14]
2 µM

Next:
// lookup IC50 for O=C(O)C1CCC(CNS(=O)(=O)c2nc(-c3ccccc3)ns2)CC1 (stereo not drawn) [Example 9]
2 µM

Queued: CN1CCN(S(=O)(=O)c2nc(-c3ccccc3)ns2)CC1 [Example 8]
4 µM

Please answer likewise for O=S(=O)(NCc1ccccc1)c1nc(-c2ccccc2)ns1 [Example 4]
15 µM

Another molecule to look at: O=S(=O)(c1nc(-c2ccccc2)ns1)N1CCOCC1 [Example 2]
3 µM

====

# Test system: release of IL-1β
# procedure_text: Inhibition of LPS-induced IL-1β release from isolated human mononuclear cells (enzyme immunoassay)
# Assay type: cell-based
# study_conditions: human mononuclear cells from citrate blood, lipopolysaccharide (Salmonella abortus equi) induced, 37° C. for 20 hours, IL-1β in supernatant; seven concentrations
Each entry below carries its reported pIC50.
pIC50 field: float, defined as -log10 of concentration (mol/L).

Worked cases, pIC50 given:
State the recorded pIC50 for this entry: O=C(O)CNS(=O)(=O)c1nc(-c2ccccc2)ns1
4.40

Now consider COc1ccc(-c2nsc(S(=O)(=O)N3CCN(C)CC3)n2)cc1Cl and answer again.
4.70

# iterate: O=C(O)[C@@H]1CCCN1S(=O)(=O)c1nc(-c2ccccc2)ns1
5.10

Others:
Data request, read-out pIC50, for O=C(O)CCNS(=O)(=O)c1nc(-c2ccccc2)ns1
5.22

Field entry: O=C(c1ccc(F)cc1)C1CCN(S(=O)(=O)c2nc(-c3ccccc3)ns2)CC1
4.92
